This collection of values is drawn from paper PMC3308013.

# target.of.assay: H-2 Db (Mus musculus, UniProt P01899)
# Sequence (P01899 25-362, one chain of several): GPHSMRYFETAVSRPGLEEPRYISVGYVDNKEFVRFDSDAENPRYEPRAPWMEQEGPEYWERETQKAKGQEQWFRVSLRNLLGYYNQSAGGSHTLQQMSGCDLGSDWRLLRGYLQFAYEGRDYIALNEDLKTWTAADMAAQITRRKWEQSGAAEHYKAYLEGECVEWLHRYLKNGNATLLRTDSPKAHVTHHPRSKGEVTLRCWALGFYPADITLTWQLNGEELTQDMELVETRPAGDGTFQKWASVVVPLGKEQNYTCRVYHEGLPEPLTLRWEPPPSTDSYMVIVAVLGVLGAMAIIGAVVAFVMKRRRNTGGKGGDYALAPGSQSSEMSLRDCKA
# procedure.summary: MHC peptide binding competition assay, purified H-2 Db
pIC50: −log10 of the molar value. Where no end group is shown, it is not given here.
Response field class: enum, chosen by comparing pIC50 against class A: < 6; class B: ≥ 6 and < 7; class C: ≥ 7

Below are worked cases with known answers.
> print(dat)
          sequence.input  label.value
1  AVCINNTFL [AVCINNTFL]      class B
2  YSVENVGLL [YSVENVGLL]      class C
3  FGLLNYALV [FGLLNYALV]      class C
4  FAFVNAAHA [FAFVNAAHA]      class C
5  AAIENYVRF [AAIENYVRF]      class C
6  SARMLGDVM [SARMLGDVM]      class A
7  GAMRAVVPI [GAMRAVVPI]      class B
8  LAVVLWSLL [LAVVLWSLL]      class A

Inquiry: Band for the recorded pIC50 of FLPRLGTEL [FLPRLGTEL] ?
Reply text: class A

Inquiry: Band for the recorded pIC50 of YQPLLSNTL [YQPLLSNTL] ?
Reply text: class A

----------
# target.of.assay: H-2 Kb (Mus musculus)
# Sequence (P01901 22-369): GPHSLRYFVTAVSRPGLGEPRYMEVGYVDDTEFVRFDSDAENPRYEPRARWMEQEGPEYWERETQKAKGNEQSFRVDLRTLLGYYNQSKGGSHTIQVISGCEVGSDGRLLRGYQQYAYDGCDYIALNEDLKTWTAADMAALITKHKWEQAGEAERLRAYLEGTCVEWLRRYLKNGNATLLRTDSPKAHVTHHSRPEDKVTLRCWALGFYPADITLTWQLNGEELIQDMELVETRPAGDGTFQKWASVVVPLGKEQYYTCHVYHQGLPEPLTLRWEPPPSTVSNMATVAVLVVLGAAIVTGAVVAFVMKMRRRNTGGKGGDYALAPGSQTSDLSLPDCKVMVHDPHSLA
# Sequence (P61769 21-119 partner): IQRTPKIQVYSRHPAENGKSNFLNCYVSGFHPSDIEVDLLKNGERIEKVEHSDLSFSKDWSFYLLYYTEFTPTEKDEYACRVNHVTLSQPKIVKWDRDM
# procedure.summary: MHC peptide binding competition assay, purified H-2 Kb
Where no end group is shown, it is not given here.
Response field label takes condition met when IC50 is strictly below 6 nM and condition not met in all other cases.

> print(dat)
        sequence.input        label.value
1  LGYAYINS [LGYAYINS]  condition not met
2  SFYRFLFA [SFYRFLFA]  condition not met
3  INNTFLHL [INNTFLHL]      condition met

Inquiry: Input QTFDFGRL [QTFDFGRL] ; condition: IC50 strictly below 6 nM. Does it hold?
Reply text: condition met

Inquiry: Input GAINFINL [GAINFINL] ; condition: IC50 strictly below 6 nM. Does it hold?
Reply text: condition not met

Inquiry: Input YRFLFAFL [YRFLFAFL] ; condition: IC50 strictly below 6 nM. Does it hold?
Reply text: condition met
